- Tested on: MS2 coat protein
- method: apparent KD of MS2 coat protein; designed switch direction (-1 OFF switch, 1 ON switch): -1; higher = weaker reporter binding
- condition-parameters: Eterna round: R95; input ligand: microRNA oligo, concentration not stated
Classification field: enter class 1 for apparent KD of MS2 coat protein values not below 30 nM, class 0 for values below it.

# check: apparent KD of MS2 coat protein of AUCUUGUCAGGAUAUCUGACAAGUGACGAAAGUCACAGUUCAGAGAAGGUACAUGAGGAUCACCCAUGUAGAAC [Ex4-3: 40] (puzzle: Exclusion 4) is greater than or equal to 30 nM
class 0

# check: apparent KD of MS2 coat protein of AUGAGCAGACGGAGAUCCAACAUGAGGAUCACCCAUGUCUCAUAAGCUUUUUGUUCAUCUUAUUGUACCUUGGUGCU [Mat - Sensor v3 - turn-off var 1 - JL Mod - D22] (puzzle: Sensor v3, turn-off variant 1) is greater than or equal to 30 nM
class 0

# check: apparent KD of MS2 coat protein of CUUUAGUGAGGAUAUCAGUGGUAAUACAAUAGUAUUACUACUGAGAAGGCACAUGAGGAUCACCCAUGUUCCUC [Mat - Exclusion 4 - Mod of Omei - D84] (puzzle: Exclusion 4) is greater than or equal to 30 nM
class 0

----------
- Test system: MS2 coat protein
- method: apparent KD of MS2 coat protein; designed switch direction (-1 OFF switch, 1 ON switch): -1; higher = weaker reporter binding
- condition-parameters: Eterna round: R95; input ligand: microRNA oligo, concentration not stated
readout: apparent KD of MS2 coat protein (nM)
Report the value in nM with no unit label.

Solved entries (count: 4):
[
  {
    "sequence-text": "GUAGAGUAAGGAUAUGUUGAAUAGGAUAGAAUGGUUAGAAAGCAGAAGGUACAUGAGGAUCACCCAUGUAAUGU [Excluse me!!!! 14 - Jieux - Exclusion 4] (puzzle: Exclusion 4)",
    "reading-unit": "nM",
    "apparent KD of MS2 coat protein": 21.4
  },
  {
    "sequence-text": "ACGCCUCCUGUUAGGAUAUGCAUCGGGCUUCCGCAGCAGAAGGAACAUGAGGAUCACCCAUGUCAAAUAAAAUC [Raleed] (puzzle: Brourd's mod of Exclusion 4)",
    "reading-unit": "nM",
    "apparent KD of MS2 coat protein": 17
  },
  {
    "sequence-text": "GCAUGUUAUGUCAGGAUAUACCUAUGGAUACAUAGGUAGAAGGGACAUGAGGAUCACCCAUGUCCUAAUCAUGC [Fiskers BMX 4 - 23] (puzzle: Brourd's mod of Exclusion 4)",
    "reading-unit": "nM",
    "apparent KD of MS2 coat protein": 12.5
  },
  {
    "sequence-text": "GCCGUGCAAGGAUAUCGCGGAAAGAACAUGAGGAUCACCCAUGUGAUCACCUUCUAAAUGCGAGAAGGUGCUAAAA [Axebied] (puzzle: Exclusion 5)",
    "reading-unit": "nM",
    "apparent KD of MS2 coat protein": 56
  }
]

Proceed to the following item.
May I ask what apparent KD of MS2 coat protein has been recorded for GGUGCGUAUGUGAGGAUAUGCUGGUCCUUGGAUCGGCAGAAGGCACAUGAGGAUCACCCAUGUGGUGUCGUACU [salish99_Bmod_ex4_082] (puzzle: Brourd's mod of Exclusion 4) ?
173

----------
# apparent KD of K4 kissing-loop reporter listing for each entry below
- Tested on: K4 kissing-loop RNA reporter
- method: apparent KD of K4 kissing-loop reporter; higher = weaker reporter binding
- condition-parameters: Eterna round: R107; input ligand: theophylline 20 uM
Report the value in nM with no unit label.

[
  {
    "sequence-text": "AAUAUAAAGUCGGCCGCCACUGGAUUUAUAUUUGUUAAAUCUGGAUCAAAGUGAUGUUUUGAGUCCAGGACCGGGACAAUUGUUA [JR_ExcTryptoB_Sub001]",
    "test-target": "K4 kissing-loop RNA reporter",
    "readout": "apparent KD of K4 kissing-loop reporter",
    "reading-unit": "nM",
    "measured-result": 122
  },
  {
    "sequence-text": "AGAUAGGGCUGAAGGAGCGUCGGAGAAGAGAAGAAGGAAUCCAGUGAUGUUGGAUAAAUCCGACAGGUAGGUCGCAGUUUUAUGA [hbob_SS_Arginine_B_2t138]",
    "test-target": "K4 kissing-loop RNA reporter",
    "readout": "apparent KD of K4 kissing-loop reporter",
    "reading-unit": "nM",
    "measured-result": 109
  },
  {
    "sequence-text": "UACUUUAAUUUAUAACUAUCUUUAUUUUGUCAGGAUAUCGUAUUGUCGAGAAGGGACUCUCUCAAGUGAUGUUUGAGAAAUCGUU [JR_SSFMNA_Sub024]",
    "test-target": "K4 kissing-loop RNA reporter",
    "readout": "apparent KD of K4 kissing-loop reporter",
    "reading-unit": "nM",
    "measured-result": 133
  },
  {
    "sequence-text": "UCGCAAAAGUCGGCCGCCACUCCGGGCCCUAUAAAUGGGCGCAGUGAUGUUGCGGCUAGGCCUCUGAGGACCGGGACUUUGUAGC [Tixelequ]",
    "test-target": "K4 kissing-loop RNA reporter",
    "readout": "apparent KD of K4 kissing-loop reporter",
    "reading-unit": "nM",
    "measured-result": 142
  }
]

Proceed to the following item.
May I ask what apparent KD of K4 kissing-loop reporter has been recorded for AAGGGCUAGGCGGCCGCCACUGGUCGUGUACACAUACAAACCAGUGAUGUUGGUAUUGUAUGCGACAGGACCGGGCCUAGCCGAA [Exclusion - Tryptophan B (Freestyle 28)] ?
258

----------
- Test system: MS2 coat protein
- method: apparent KD of MS2 coat protein; higher = weaker reporter binding
- condition-parameters: Eterna round: R107; input ligand: theophylline 20 uM
# apparent KD of MS2 coat protein listing for each entry below

Param readout = apparent KD of MS2 coat protein; param system = MS2 coat protein; param query = AUUAUCAUGGUCAUAUAUAUUUCGUCAGAUACCAGACUAGAUAUAGUCCCUUGGCAGCUGUUACAUGAGGAUCACCCAUGUUAUA [JR_ExcTheophyA_Sub016] ; response: value
76.8 nM

Param readout = apparent KD of MS2 coat protein; param system = MS2 coat protein; param query = CUUAUAGUAACUGAUACCAGUGUACUGACAUGAGGAUCACCCAUGUUGGGUUUUGUUGUACACCCUUGGCAGCAGAAUCUAUAAG [AstrosExyTheB#10] ; response: value
65.7 nM

----------
- System: K4 kissing-loop RNA reporter;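 further: bound reporter read as fluorescence of individual clusters on recovered sequencing chips by microscopy, with normalized cluster intensities fitted with a binding model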
- method: apparent KD of K4 kissing-loop reporter; higher = weaker reporter binding
- condition-parameters: Eterna round: R107; input ligand: FMN 200 uM
# apparent KD of K4 kissing-loop reporter listing for each entry below
Report the value in nM with no unit label.

Solved entries (count: 4):
[
  {
    "sequence-text": "AAAUAGAUCAGUCAUCCAGUGAUGUUGGAAGGAGCGUGCGAAAGCACAGGUAGGUCGCCAAAAUAAAAGUGGCUGAUCAAAAUAA",
    "reading-unit": "nM",
    "apparent KD of K4 kissing-loop reporter": 629
  },
  {
    "sequence-text": "AAGUCAUAUAGAAGGAGCGUGUUUUAUAAUUUAUUUUCAUGAUCGAGUGAUGUUCGAUAUACACAGGUAGGUCGCUGUAUAAUAA [hbob_SS_Arginine_B_2t140]",
    "reading-unit": "nM",
    "apparent KD of K4 kissing-loop reporter": 114
  },
  {
    "sequence-text": "AUGUCGUUAUAGUGAGUGAUGUUCACUGUGCGAGGACCGGUACGGCCGCCACUCGAGAGUGGUGGACACUGAGUCACUCUGACAC [Tryp A Ex t2]",
    "reading-unit": "nM",
    "apparent KD of K4 kissing-loop reporter": 124
  },
  {
    "sequence-text": "AAGUAGUCCCUUGUUGUCAUCGAAGAUGAACGAGGACCGGUACGGCCGCCACUCGGAGUGAUGUUCCGAUGGCUGCAAAAUAAAA [MatMod 22 - Jieux - Exclusion - Tryptophan A]",
    "reading-unit": "nM",
    "apparent KD of K4 kissing-loop reporter": 103
  }
]

May I ask what apparent KD of K4 kissing-loop reporter has been recorded for UGACUGGACUGAAGGAGCGCGAAAACUCCUAGUGAUGUUAGGAAAACGAGACAAAGUCUCGCGCAGGUAGGUCGCAGUCUAGUCU [ArgBS 20 #SwitchBubble #StaticStem] ?
131

May I ask what apparent KD of K4 kissing-loop reporter has been recorded for GUAUCGCUAGGAGGAUAUUUCAAAUAACCAAUAAAUGGUUAUACGGAGUGAUGUUCCGAUUUACGGAAAGAAGGCCUAGUGAUAC [FMN B 5] ?
137

May I ask what apparent KD of K4 kissing-loop reporter has been recorded for AAUAAGGUCGCCGAUACCAGCGCAGGCAGAGCAAAGCUCUGCCGGGUAGUGAUGUUACCGCGCCCUUGGCAGCGGUGGCACGACC [Omei KL Theo B SS C v1] ?
579

May I ask what apparent KD of K4 kissing-loop reporter has been recorded for GUACGCUCUCGAGUGAUGUUCGGUAAUCGCUAGGAUAUCGCUUUUGCGAGAAGGAGCGGAAUGAGGAAACUCGUUCUGAGUGUAC [FMN A 22] ?
452

May I ask what apparent KD of K4 kissing-loop reporter has been recorded for CUCCAACUUGAUGAUACCAGAGAGGAGGAAGUGAUGUUGACUCCGGCUACAUACUGGCGACUCCCUUGGCAGCAUUACGUCAUCC [theeternabot_sameState_KL_Theo_B_3] ?
389

May I ask what apparent KD of K4 kissing-loop reporter has been recorded for GCUAUGGUAGGAAGGAGCGCGGACGGUAUUUGUCGAGUGAUGUUCGAUUCUUUAAUUUGAACGCAGGUAGGUCGCCUACUAUAGC [Arginine B K4 30] ?
214

May I ask what apparent KD of K4 kissing-loop reporter has been recorded for AAGCAGUCCCUCGAAGCCAUCGAAGAUGGGCGAGGACCGGUACGGCCGCCACUCGGAGUGAUGUUCCGAAGACUGCAAAAUAAAA [MatMod 3 - Jieux - Exclusion - Tryptophan A] ?
367

May I ask what apparent KD of K4 kissing-loop reporter has been recorded for AAUCGAGUGAUGUUCGAUGUAGUGCAUUCAGAGGAUAUAGGAUGGGCUAGAAGGCUGAAAAGUGCUUCGAGUGAUGUUCGAAGAU [Exclusion FMN A GF 4] ?
47.1
